Listed below: pRB (%) values for each entry.
- Test system: pRB
- Experiment Description: pRB phosphorylation level, immunofluorescence staining quantified with ImageJ
- Type: cell-based, human
- Conditions: MG63 cells; alginate matrix with cyclic GFR-binding peptide + SiRNA Integrin alpha 3 + SiRNA Integrin beta 1; 48 h; 400 ng/mL GFR-binding compound
- Procedure: The cells were first fixed for 20 min with 4% paraformaldehyde/PBS at 4° C. After fixation, the cells were permeabilized in PBS containing 1% Triton X-100 for 15 min. […] For this type of quantification the freeware image analysis ImageJ® software was used. […] Threshold values were determined empirically by selecting a setting, which gave the most accurate binary image for a subset of randomly selected photomicrographs. The cell area was determined by manual delineation on raw fluorescent images. […]
Where no end group is shown, it is not given here.

| Sequence Chain | Result Units | pRB (%) |
| --- | --- | --- |
| GGGGGGGGGDDSSNVIRVPSTSSAPTKMNAISMLYFDENEKVV (also: cyclic (mode not given here)) [SEQ ID NO: 4719] | % | 15 |
| GGGGGGGGGDDSSNVISTPPTSSVSQKMKPLSILYVDDSSNVI (also: cyclic (mode not given here)) [SEQ ID NO: 4735] | % | 8 |
| GGGGGGGGGDDSSNVIKIPKASSVPTGGSNITVQIMDDSSNVI (also: cyclic (mode not given here)) [SEQ ID NO: 4722] | % | 17 |

###

- Tested on: pRB
- Experiment Description: pRB phosphorylation level, immunofluorescence staining quantified with ImageJ
- Assay type: cell-based, human
- Conditions: MG63 cells; alginate matrix with cyclic GFR-binding peptide + SiRNA Integrin alpha 3 + SiRNA Integrin beta 1; 48 h; 400 ng/mL GFR-binding compound
- Protocol: The cells were first fixed for 20 min with 4% paraformaldehyde/PBS at 4° C. After fixation, the cells were permeabilized in PBS containing 1% Triton X-100 for 15 min. […] For this type of quantification the freeware image analysis ImageJ® software was used. […] Threshold values were determined empirically by selecting a setting, which gave the most accurate binary image for a subset of randomly selected photomicrographs. The cell area was determined by manual delineation on raw fluorescent images. […]
Where no end group is shown, it is not given here.
The sequences listed here are annotated with their pRB (%).
Observed Property: pRB (%)

| Sequence Chain | Observed Property | Result Units | Recorded Number |
| --- | --- | --- | --- |
| GGGGGGGGGDDSSNVIRVPSTSSVPTGQSAISTLYLDDSSNVI (also: cyclic (mode not given here)) [SEQ ID NO: 4718] | pRB (%) | % | 10 |
| AAAAAAAAADENEKVVRVPSTSSVPAEESNITVQIMDDSSNVI (also: cyclic (mode not given here)) [SEQ ID NO: 4738] | pRB (%) | % | 16 |
| GGGGGGGGGDENEKVVKIPKASSVSQQLEPISTLYLDENEKVV (also: cyclic (mode not given here)) [SEQ ID NO: 4732] | pRB (%) | % | 9 |

###

- System: pRB
- Experiment Description: pRB phosphorylation level, immunofluorescence staining quantified with ImageJ
- Type: cell-based, human
- Conditions: MG63 cells; alginate matrix with cyclic GFR-binding peptide + SiRNA Integrin alpha 3 + SiRNA Integrin beta 1; 48 h; 400 ng/mL GFR-binding compound
Where no end group is shown, it is not given here.
Parameter threshold = 10%. Response is True when pRB (%) meets or exceeds it, else False.

| Sequence Chain | Class Assignment |
| --- | --- |
| GGGGGGGGGDDSSNVIAASKASSTPTDLNAISTLYFDDSSNVI (also: cyclic (mode not given here)) [SEQ ID NO: 4728] | True |
| AAAAAAAAADENEKVVAASKASSVPQEEEPLPMVYYDAANNVV (also: cyclic) [SEQ ID NO: 4721] | True |
| AAAAAAAAADENEKVVAASKASSVPEKMRPVQTRKIDDSSNVI (also: cyclic) [SEQ ID NO: 4741] | True |
| GGGGGGGGGFDNDENVVGIPEPSSAPVDMRPVQIRKIFDNDENVV (also: cyclic (mode not given here)) [SEQ ID NO: 4742] | True |
| GGGGGGGGGDENEKVVKIPKASSTQVRLRPVQIRKIDAANNVV (also: cyclic (mode not given here)) [SEQ ID NO: 4724] | False |
| GGGGGGGGGDENEKVVSTPPTSSVPTEVSPINTLYFDENEKVV (also: cyclic (mode not given here)) [SEQ ID NO: 4733] | True |
| GGGGGGGGGFDNDENVVSTPPTSSTPTKMSNITTQIMFDNDENVV (also: cyclic (mode not given here)) [SEQ ID NO: 4737] | True |
| GGGGGGGGGFDNDENVVRVPSTSSVPEKMEPLTMLYYFDNDENVV (also: cyclic (mode not given here)) [SEQ ID NO: 4736] | False |
| GGGGGGGGGDDSSNVIGIPEPSSAPTRLEPISMLYLDENEKVV (also: cyclic (mode not given here)) [SEQ ID NO: 4731] | False |
| AAAAAAAAADENEKVVAASKASSSRVELRSVKIAKVDDSSNVI (also: cyclic) [SEQ ID NO: 4723] | False |
| GGGGGGGGGDENEKVVGIPEPSSAPVDLKPLSTLYVDENEKVV (also: cyclic (mode not given here)) [SEQ ID NO: 4720] | False |
| AAAAAAAAADAANNVVKIPKASSSRVRLSSLSTLFFDAANNVV (also: cyclic) [SEQ ID NO: 4727] | True |
| GGGGGGGGGFDNDENVVAASKASSVPQRLRSVKVAKVFDNDENVV (also: cyclic (mode not given here)) [SEQ ID NO: 4739] | True |
| GGGGGGGGGDENEKVVRVPSTSSTQVDLNAISVLYFDENEKVV (also: cyclic (mode not given here)) [SEQ ID NO: 4729] | True |
| GGGGGGGGGDENEKVVNDEGLESVPEDLSSLSVLFFDENEKVV (also: cyclic (mode not given here)) [SEQ ID NO: 4717] | True |
